- assay-details: soluble on expression in E. coli; label from the status in PepcDB or PDB records
measured-quantity: soluble on expression in E. coli

primary-sequence: KFTLGQFFGAAKIAGKAFMFKADEPEDLIAKIVEMADAARKGGFLALEEMEINNSFMQKGIDLLVDGHDADVVRAALQKDIALTDERHTQGTGVFRAFGD
experimental-value: not soluble
//
primary-sequence: MGSDKIHHHHHHMSISQMQVFNKYFMPAIIETLGQQIQKFNAASRGAIMLTTAGFEGDFLQESFYQAIHGARRRVDRYAANGSASPTDLTQLKHSSVKVAGGFGPIRYEPSQMTWLEKPTAEGIEVASRHFAEALLQDQLNTAIAALVAAISNQALATVNVSAKTGLNYSVLNDAHAKFGDSSGLIVANVMSGQVYHKLIGQNLVNAQQLFEYGAVTVVDILGKTVVVTDAPALYATGTPNLQKVLGLVAGAATVSDGGDLITNIETSNGKERIETTFQADYTFGLGLKGYTWDEATGGKSPTDAELATGTNWDKVATDIKHTAGVIAIGDASK
experimental-value: not soluble
//
primary-sequence: MQLSRQDEPLYLGLAETLRDELAGYQPGDYLPAEFQLAERFSVNRHTIRRAVDELVREGSVLRRQGKGTQVLERPLIYPMQADSAYSQSLSAQGVGVEAILLLRRECQASHEDALHLGLAEHAPVIELQTLRKLDGQAVSLIFHRYSAVYHELLADYQGGSVRQYLAECGLPLSRAQSLIGARLPSREEAGLLLMPRHMPALTVLTVSCDGAGQPVELSRSVSRSDRFQYQVATAIPTR
experimental-value: not soluble

* * *

- assay-details: soluble on expression in E. coli; label from the status in PepcDB or PDB records

primary-sequence: MDESTCPIIEAIREVGKENDLLVIRLLSDNDLGFNQILKLAGKMSPKTLSVTLKRLTEKKIIYRDVVSTQPFRVKYRLTEKGQELRNVLNDLGQWGERWILNNESQSAVNTENYRLKS
soluble on expression in E. coli: not soluble

primary-sequence: MGSDKIHHHHHHMPCMTLLRRAFAIPLLLMVSSGLALAERPAENQKIALQMYTLRSVSTLDEQFSMAHNAGFKAVELVGTHGISASEMKGLLGKYQLKAIAAHVQLGELKSNMAEVVAFNKAIGNRMIIVPWLNVEDRPNSAEGWQRFGTEMNDLGRELKKQGMQLAYHNHNFEMKKYRGKTALEIMLDAAEPENLMLEMDVAWVSLGGQDPARLLRQYKGRIYSIHAKDNTSIGIRDDEMNFAPPGEGILAWEEILPAAAKAGTQWFVAEHDLPKDPQAIISAAYQSLYEKLSKVKSK
soluble on expression in E. coli: not soluble

* * *

- assay-details: soluble on expression in E. coli; label from the status in PepcDB or PDB records
measured-quantity: soluble on expression in E. coli

# annotated cases, reported soluble on expression in E. coli shown
primary-sequence: MSVPAGSVSCLANALLNLRSSTDYNADHGVKNSILNFSNSKDASRFDGSESWSSSVLDKNQFIVAGSDSVKHFVAISTQGRGDHDQWVTSYKLRYTLDNVNWVEYNNGEIINANKDRNSIVTINFNPPIKARSIAIHPQTYNNHISLRWELYALPVKSYSNPSVQVGEVSIGDRSLNSGTGSRTIVRHVKFPVEFLSVPIVSIGCKKVDAHTDNGQMRWEGKSENITTKGFDLTFITWGNNAVYDLTFDYVAVEFNN
soluble on expression in E. coli: soluble

primary-sequence: MGSDKIHHHHHHVKKLELYTGTEQGKPAIGIRLGGEASIQDLLDLWQPLCDDSELFKSYAAGNHATCRGCLHNCCQTAYVIPDLISFKKMAAHLHLTYKEFLSADFFDAEKLEAGIVRMKPNPCIFLQDNICSIYPLRSLICRFYICCQLMGDCEQLIYSICWSGSAATQLFAEQEGLINSKGSGALSSFDLMFKRLMEEYRFDPRVQLFLQANDYYDIPLSAFTAADI
soluble on expression in E. coli: not soluble

primary-sequence: SNAMLSANQIKFLRSLRERKYRLREQAFAVEGPKLVGEMLPFYRCRMLVGTAAMLRAVSTPHDAEVVELPESFDFKRISTQTTPQPLMAVFDLPAEPEPVVEGLTLLLDGVQDPGNVGTILRTADWFGIRHVWLGTGSADVFSPKVVQASMGALARVQPTPLKNTVDTLAYFRRQGIPVYGAFLDGQSLYEAPLPNFTEPAILVLGSEGRGISPEVAAEITDRLTIPASGLSVKGHTESLNVAIATAILCSEWRRRS
soluble on expression in E. coli: soluble

primary-sequence: APADKPQVLASFTQTSASSQNAWLAANRNQSAWAAYEFDWSTDLCTQAPDNPFGFPFNTACARHDFGYRNYKAAGSFDANKSRIDSAFYEDMKRVCTGYTGEKNTACNSTAWTYYQAVKIFG
soluble on expression in E. coli: soluble

primary-sequence: MKQIESAKNQKVKDWKKLHTKKERTKTNTFLIEGEHLVEEALKSPGIVKEILVKDETRIPSDLETGIQCYMLSEDAFSAVTETETPQQIAAVCHMPEEKLATARKVLLIDAVQDPGNLGTMIRTADAAGLDAVVLGDGTADAFNGKTLRSAQGSHFHIPVVRRNLPSYVDELKAEGVKVYGTALQNGAPYQEIPQSESFALIVGNEGAGVDAALLEKTDLNLYVPLYGQAESLNVAVAAAILVYHLRG
soluble on expression in E. coli: soluble

Ask | Dear colleague, please send me the reported soluble on expression in E. coli for "MSLDRSNTVELHAAGAQSAQGARPDQEDEYIILTPGGSPNEIGDSIAFFAVFDGHGTGIVSNHAKEHIPLLLFESDEFRSGNYERAMQAAIDKEDELLLQGFREGQNFFATSGSTASLALVDMKNGVLVVGNIGDSHILMAERDPENGQVKSIERLTTSHKPESADEKARIEKAGGHVHSHHDISRIGSLNMSRALGDLQYKTPLISAAAAPKTEGQKFACAPDPQNVSSQDGAQAGTGRDDFITVEMSFRRIDLHKEKQYLLALTTDGVTNALDDGKIMNGIAEMFNTGSKADEVARKVVDQAASTEYADNATCVTVFLNGTEARLAEGHHHHHH" when you can.
Reply | soluble

Ask | Dear colleague, please send me the reported soluble on expression in E. coli for "ETRVRRTKTIVEITGLDARSGSLRINELYRWEPVHDNFKRAGDSYVLNEIMRARGWSPDKLFIEFKNREQILAYMTAKQIRDYVSVSLIVHMYATNPQLVMEAVGNDTLRDMVAHHS" when you can.
Reply | not soluble

Ask | Dear colleague, please send me the reported soluble on expression in E. coli for "MGSDKIHHHHHHMEKILTKQEIEALLAAVFEGKIEPDKELAKAEATVQSYDLFSSESKGNIPNLDIIYDSFIRYQRGTLSNRLGRIVEIKKVGAASFKFDDFLHTMPSPVAMAVYKADPLKGAALIAFDSTLVFTIVDCILGGTGSSVVPTVGNRMFTSIELRLVQKIVMDVLADLEKAWAPIYATKMGFLRMEMNPRLVNIVPPEYQVVTMEMEIQIEEIIGKMIFAVPLTTIDPVREKLKNGAQVDMMAIDPQWSFRLSKELLEAPLDLSVEVGGAIISMDELLNLTPGDTIMLDTPCNSDLVVKVGGVSKFMSAPGLRHGNKAAQITTIIGKGREQ" when you can.
Reply | not soluble

Ask | Dear colleague, please send me the reported soluble on expression in E. coli for "MGANALDFYPEPLREEIERLNGRIYPAVNNGVYRAGFATRQDAYEEAFVQLFEELDYLEGLLGERRYLAGEYLTEADIRLFTTLVRFDAVYHGHFKCNLRRIEDYPNLSGWLRELYQRPGIGETVLEHHHHHH" when you can.
Reply | not soluble

Ask | Dear colleague, please send me the reported soluble on expression in E. coli for "MAHHHHHHMSEENNIRKGPSFVFHDIKKKRMREIILMCNKKKQKKMLLKSLNIKFIYEEKNKKRVKIHVDNFLPVSINSDMEIIKKYKEILYDDNYCNIYDINKLKIGKMKKILKDFFYDIFLFCKYIFYKFIYKCQNIINLFLEYKQIMLSHCINRVPYFIKVFSFSSLHILLKYSIRSFFKNYSFYKYIFTPNYKICFLCIHKNSYYSEIEKEDTSQICFDDVSTCQEINILGSEEYLRGLVTSSVGFIDNYDDKNRGNNFLEIFQKHMNIFDIKKDDVHFKINKYEQRIDIEKAFSHIKNNILQKYDERRREKKKDNDKLIRRVQNMYDDVENKIMSSLKKILDITNYDEEREKC" when you can.
Reply | soluble

Ask | Dear colleague, please send me the reported soluble on expression in E. coli for "MATTLPVQRHPRSLFPEFSELFAAFPSFAGLRPTFDTRLMRLEDEMKEGRYEVRAELPGVDPDKDVDIMVRDGQLTIKAERTEQKDFDGRSEFAYGSFVRTVSLPVGADEDDIKATYDKGILTVSVAVSEGKPTEKHIQIRSTN" when you can.
Reply | soluble

Ask | Dear colleague, please send me the reported soluble on expression in E. coli for "MQDLKVISKHYAKALKNHTKSDLALLEEIVVGLKNATEAIRQHKLNQVLAHVSLKVKKEVVFEILEKITSIKACSVLKPVMEVVLKNNRLDMLELITEELSFDSKRTLEATLLVPEKLENNELEAVQQKLQARFNAPVEITQDTWSKKGVSLSVSSLDLEIGFSKEDILKKIEKQVIQSI" when you can.
Reply | not soluble
